From: the RNAGym collection of RNA variant scans (doi:10.1073/pnas.2313332121)

B1: TPR 5TU (parent)
chain: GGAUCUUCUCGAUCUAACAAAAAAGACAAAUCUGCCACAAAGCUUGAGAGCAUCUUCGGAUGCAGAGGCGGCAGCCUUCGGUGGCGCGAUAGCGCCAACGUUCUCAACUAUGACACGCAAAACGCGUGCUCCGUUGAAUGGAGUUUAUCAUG

Variants of: B1
protocol details: polymerase ribozyme fitness, log enrichment relative to wild type (log ratio); higher = more active; in vitro selection for triplet polymerase activity
Fewer inactive variants are shown than the library holds.
Short version: polymerase ribozyme fitness (log ratio) at least -3 is class 1, less is class 0.

Observe how each entry below is paired with its result.
• A17U C87U C96U U104C A107U G141U = class 0
• A21G C76G A97U = class 0
• A49G G50A C54A A66G U82A C108U C125A = class 0
• A28U A40U G48A A119U U127C U146G = class 0
• A16C C18G A22G C27U A52G U61A A73G C85A U127C U139C = class 0

# bool: polymerase ribozyme fitness (log ratio) of G42A C54U G117A >= -3
class 0

Continue with C96A U101C U109A C118A
class 1

Follow-up item: U4C A17U G50U G58A G92C C99U G117U
class 0
